tested on: Lung; assay: Biodistribution in lung of mouse B16F0 cells implanted C57BL/6J mouse assessed per gram of tissue at 0.4 to 5.5 MBq, iv after 0.25 hrs by gamma counter; assay type: ADME, organism-based; settings: in vivo
Quantity: Drug uptake (%)

(P) CCN(CC)CCNC(=O)c1ccc([18F])nc1
(Q) CCCCN(C)CCCCNC(=O)c1ccc([18F])nc1
Please state the entry with greater Drug uptake among P and Q . Selection: enter the item's label.
Q
(Q: 12.1%, P: 5.6%)

====

tested on: Spleen; test: Biodistribution in spleen of mouse B16F0 cells implanted C57BL/6J mouse assessed per gram of tissue at 0.4 to 5.5 MBq, iv after 0.25 hrs by gamma counter; format: ADME, organism-based; conditions: in vivo
Quantity: Drug uptake (%)

>>> quantitative_result("CCN(CC)CCNC(=O)c1cccnc1[18F]")
11.8
>>> quantitative_result("CCN(CC)CCNC(=O)c1ccnc([18F])c1")
10.3
>>> quantitative_result("CCCCN(C)CCCCNC(=O)c1ccc([18F])nc1")
11.2
>>> quantitative_result("CCN(CC)CCNC(=O)c1ccc([18F])nc1")
8.6

====

test system: Stomach; assay: Biodistribution in stomach of mouse B16F0 cells implanted C57BL/6J mouse assessed per gram of tissue at 0.4 to 5.5 MBq, iv after 6 hrs by gamma counter; assay type: ADME, organism-based; conditions: in vivo
Quantity: Drug uptake (%)

(a) CCN(CC)CCNC(=O)c1cccnc1[18F]
(b) CCN(CC)CCNC(=O)c1ccc([18F])nc1
(c) CCN(CC)CCNC(=O)c1ccnc([18F])c1
(d) CCCCN(C)CCCCNC(=O)c1ccc([18F])nc1
Which order do the items above take when sorted by Drug uptake from high to low? Answer by listing the labels in the requested order.
d, a, c, b

====

test: Biodistribution in eye of mouse B16F0 cells implanted C57BL/6J mouse assessed per gram of tissue at 0.4 to 5.5 MBq, iv after 6 hrs by gamma counter; assay type: ADME, organism-based; details: in vivo
Quantity: Drug uptake (%)

Before answering, review these 2 worked examples.
>>> quantitative_result("CCN(CC)CCNC(=O)c1ccnc([18F])c1")
16.5
>>> quantitative_result("CCN(CC)CCNC(=O)c1ccc([18F])nc1")
15.6

(a) CCCCN(C)CCCCNC(=O)c1ccc([18F])nc1
(b) CCN(CC)CCNC(=O)c1cccnc1[18F]
Please state the entry with greater Drug uptake among a and b . Selection: enter the item's label.
b
(b: 27.4%, a: 15.8%)

====

system: Intestine; test: Biodistribution in intestine of mouse B16F0 cells implanted C57BL/6J mouse assessed per gram of tissue at 0.4 to 5.5 MBq, iv after 6 hrs by gamma counter; assay type: ADME, organism-based; conditions: in vivo
Quantity: Drug uptake (%)

>>> quantitative_result("CCCCN(C)CCCCNC(=O)c1ccc([18F])nc1")
3.1

(I) CCN(CC)CCNC(=O)c1cccnc1[18F]
(II) CCN(CC)CCNC(=O)c1ccnc([18F])c1
(III) CCN(CC)CCNC(=O)c1ccc([18F])nc1
Put the items in order so that reported Drug uptake rises from first to last. Answer by listing the labels in the requested order.
III, II, I

====

tested on: Thyroid gland; experiment: Biodistribution in thyroid of mouse B16F0 cells implanted C57BL/6J mouse assessed per gram of tissue at 0.4 to 5.5 MBq, iv after 6 hrs by gamma counter; format: ADME, organism-based; details: in vivo
Quantity: Drug uptake (%)

Before answering, review these 2 worked examples.
>>> quantitative_result("CCN(CC)CCNC(=O)c1ccc([18F])nc1")
0.17
>>> quantitative_result("CCN(CC)CCNC(=O)c1ccnc([18F])c1")
1

(a) CCCCN(C)CCCCNC(=O)c1ccc([18F])nc1
(b) CCN(CC)CCNC(=O)c1cccnc1[18F]
Please state the entry with greater Drug uptake among a and b . Selection: enter the item's label.
b

From: ChEMBL document CHEMBL1152441
